experimental_target: UniProt:P00533
Sequence (P00533 25-1210): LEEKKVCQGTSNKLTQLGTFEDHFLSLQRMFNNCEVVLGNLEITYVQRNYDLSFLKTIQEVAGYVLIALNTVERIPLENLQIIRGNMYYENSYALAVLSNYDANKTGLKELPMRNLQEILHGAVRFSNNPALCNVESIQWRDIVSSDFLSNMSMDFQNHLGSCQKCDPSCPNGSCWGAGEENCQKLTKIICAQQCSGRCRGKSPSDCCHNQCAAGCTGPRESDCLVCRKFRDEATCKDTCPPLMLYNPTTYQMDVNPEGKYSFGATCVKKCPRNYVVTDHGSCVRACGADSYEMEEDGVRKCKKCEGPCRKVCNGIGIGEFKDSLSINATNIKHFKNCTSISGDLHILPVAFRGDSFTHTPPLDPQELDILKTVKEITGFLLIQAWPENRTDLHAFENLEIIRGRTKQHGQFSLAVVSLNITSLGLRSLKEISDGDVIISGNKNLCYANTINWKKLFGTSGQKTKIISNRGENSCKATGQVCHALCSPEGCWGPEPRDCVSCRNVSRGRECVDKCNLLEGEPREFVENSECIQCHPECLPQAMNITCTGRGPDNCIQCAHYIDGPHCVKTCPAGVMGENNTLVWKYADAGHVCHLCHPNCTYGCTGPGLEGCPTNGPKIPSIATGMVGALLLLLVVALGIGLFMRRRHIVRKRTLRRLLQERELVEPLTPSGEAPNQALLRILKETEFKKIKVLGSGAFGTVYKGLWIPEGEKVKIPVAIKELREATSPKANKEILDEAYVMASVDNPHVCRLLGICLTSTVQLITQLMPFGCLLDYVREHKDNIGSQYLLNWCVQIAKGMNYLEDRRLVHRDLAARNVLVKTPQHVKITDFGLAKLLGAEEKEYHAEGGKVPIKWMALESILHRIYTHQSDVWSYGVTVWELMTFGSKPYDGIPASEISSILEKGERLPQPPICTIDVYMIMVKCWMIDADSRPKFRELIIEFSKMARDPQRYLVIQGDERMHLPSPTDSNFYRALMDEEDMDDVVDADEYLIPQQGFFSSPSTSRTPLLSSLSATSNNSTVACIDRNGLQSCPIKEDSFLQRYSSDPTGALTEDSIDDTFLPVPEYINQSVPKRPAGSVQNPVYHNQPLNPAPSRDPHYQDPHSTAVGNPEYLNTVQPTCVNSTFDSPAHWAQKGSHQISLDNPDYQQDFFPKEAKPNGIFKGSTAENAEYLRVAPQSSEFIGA
experimental_protocol: ProQinase in-cell EGFR assay (EGFR phosphorylation in A431 cells)
Assay type: cell-based
Parameters: This cell line endogenously expresses a high level of EGFR; endogenous in cells; host or cells: A431
test_settings: ProQinase in-cell EGFR assay, A431 cells, n = 1
attribute_measured: IC50 (nM)

Completed entries (count: 3):
C#Cc1cccc(Nc2ncnc3cc(OC)ccc23)c1	530
C#Cc1cc(Nc2ncnc3ccc(I)cc23)ccc1Cl	2000
C#Cc1cccc(Nc2ccnc3ccc(I)cc23)c1F	1900

A: C#Cc1cccc(Nc2ncnc3cc(OC)c(OC)cc23)c1F
B: C#Cc1cccc(Nc2ncnc3cc(OC)c(OC)cc23)c1
Q: Of the pair A and B , name the member with the lesser recorded IC50. Mark your answer with the label of the selected entry.
Result: B
